TARGET_OF_ASSAY: Nav1.7 (or SCN9A) channel; HEK cells stably transfected with hSCN9A (Homo sapiens, UniProt Q15858)
Construct: expressed in transfected cells
Sequence (Q15858 whole entry): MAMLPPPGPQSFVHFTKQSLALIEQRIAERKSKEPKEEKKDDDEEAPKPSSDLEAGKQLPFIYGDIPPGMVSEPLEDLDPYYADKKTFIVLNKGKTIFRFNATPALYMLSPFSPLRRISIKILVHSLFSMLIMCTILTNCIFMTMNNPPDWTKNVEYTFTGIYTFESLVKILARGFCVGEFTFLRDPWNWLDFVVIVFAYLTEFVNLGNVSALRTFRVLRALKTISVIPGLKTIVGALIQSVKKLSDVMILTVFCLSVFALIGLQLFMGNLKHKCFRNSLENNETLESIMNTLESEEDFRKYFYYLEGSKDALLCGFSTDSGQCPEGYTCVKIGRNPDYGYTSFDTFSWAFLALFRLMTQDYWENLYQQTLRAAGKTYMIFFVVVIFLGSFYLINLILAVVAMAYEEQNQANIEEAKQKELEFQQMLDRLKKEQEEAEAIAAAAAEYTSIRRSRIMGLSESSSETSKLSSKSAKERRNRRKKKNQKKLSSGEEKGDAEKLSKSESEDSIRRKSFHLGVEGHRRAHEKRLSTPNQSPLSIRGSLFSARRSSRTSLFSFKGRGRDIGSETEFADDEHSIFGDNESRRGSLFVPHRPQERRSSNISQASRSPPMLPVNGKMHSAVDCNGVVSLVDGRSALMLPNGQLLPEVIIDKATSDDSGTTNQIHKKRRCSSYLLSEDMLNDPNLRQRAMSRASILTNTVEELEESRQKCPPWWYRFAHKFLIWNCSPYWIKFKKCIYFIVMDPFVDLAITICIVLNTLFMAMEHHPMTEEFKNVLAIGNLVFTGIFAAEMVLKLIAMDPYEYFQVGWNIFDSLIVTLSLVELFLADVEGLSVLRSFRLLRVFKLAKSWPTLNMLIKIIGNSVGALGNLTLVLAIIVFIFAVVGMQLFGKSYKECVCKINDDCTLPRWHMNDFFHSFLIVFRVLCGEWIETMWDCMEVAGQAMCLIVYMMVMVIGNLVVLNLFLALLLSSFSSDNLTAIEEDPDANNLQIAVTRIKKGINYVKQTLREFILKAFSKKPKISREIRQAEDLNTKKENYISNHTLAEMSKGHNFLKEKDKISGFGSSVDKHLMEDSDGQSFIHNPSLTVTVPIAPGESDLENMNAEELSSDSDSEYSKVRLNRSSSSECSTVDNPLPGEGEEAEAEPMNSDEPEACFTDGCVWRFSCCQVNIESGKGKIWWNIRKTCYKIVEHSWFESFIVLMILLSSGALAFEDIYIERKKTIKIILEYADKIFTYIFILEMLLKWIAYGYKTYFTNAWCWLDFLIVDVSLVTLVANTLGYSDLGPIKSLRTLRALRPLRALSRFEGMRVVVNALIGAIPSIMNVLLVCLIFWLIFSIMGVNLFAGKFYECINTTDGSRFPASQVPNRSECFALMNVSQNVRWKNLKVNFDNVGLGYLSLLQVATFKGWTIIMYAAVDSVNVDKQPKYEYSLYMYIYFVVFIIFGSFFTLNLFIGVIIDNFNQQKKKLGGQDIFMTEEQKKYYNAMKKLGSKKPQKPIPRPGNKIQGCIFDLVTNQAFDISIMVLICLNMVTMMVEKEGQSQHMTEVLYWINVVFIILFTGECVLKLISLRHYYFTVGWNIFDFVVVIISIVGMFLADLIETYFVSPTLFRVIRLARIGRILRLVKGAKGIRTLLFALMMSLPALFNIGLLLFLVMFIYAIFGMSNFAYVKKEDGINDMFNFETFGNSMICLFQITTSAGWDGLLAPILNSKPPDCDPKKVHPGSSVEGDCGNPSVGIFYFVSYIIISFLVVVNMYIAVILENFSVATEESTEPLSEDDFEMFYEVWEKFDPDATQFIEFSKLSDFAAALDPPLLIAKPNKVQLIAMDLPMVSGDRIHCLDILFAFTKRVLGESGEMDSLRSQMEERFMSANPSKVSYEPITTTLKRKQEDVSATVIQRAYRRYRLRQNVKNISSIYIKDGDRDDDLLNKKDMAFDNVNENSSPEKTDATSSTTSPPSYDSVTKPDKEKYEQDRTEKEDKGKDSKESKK
MEASUREMENT_NOTES: Nav1.7 block, PatchXpress 7000 automated whole-cell voltage clamp, estimated IC50 (EIC50)
Format: cell-based
MEASUREMENT_SETUP: estimated IC50; hSCN9A HEK cells, PatchXpress platform; Examples 283-814
MEASURED_PARAMETER: IC50 (nM)

{"columns": ["SMI", "VAL"],
 "data": [
  ["CC(C)n1cc(-c2cc(Cl)ccc2Oc2ccc(S(=O)(=O)Nc3ncns3)cc2C#N)cn1", 580],
  ["Cn1ccc(-c2cc(F)ccc2Oc2cc(F)c(S(=O)(=O)Nc3cscn3)cc2Cl)n1", 7300],
  ["Cn1nccc1-c1cc(C(F)(F)F)ccc1Oc1ccc(S(=O)(=O)Nc2ncc(F)s2)cc1C#N", 33],
  ["Nc1ccnc(-c2cc(Cl)ccc2Oc2cc(F)c(S(=O)(=O)Nc3ncns3)cc2Cl)c1", 120],
  ["COc1cc(-c2cc(F)ccc2Oc2cc(F)c(S(=O)(=O)Nc3cscn3)cc2Cl)n(C)n1", 5100]
]}

(P) O=S(=O)(Nc1nncs1)c1ccc(Oc2ccc(Cl)cc2-c2ccn[nH]2)c(Cl)c1
(Q) Cn1nccc1-c1cc(Cl)ccc1Oc1ccc(S(=O)(=O)Nc2ccc(F)cn2)cc1C#N
Rank P against Q by their IC50 values and give the higher one. Response format: the label of the selected entry.
Q
(Q: 400 nM, P: 50 nM)

(A) N#Cc1cc(S(=O)(=O)Nc2ccc(C(F)(F)F)cn2)ccc1Oc1ccccc1-c1ccccc1
(B) Cn1ccnc1-c1cc(Cl)ccc1Oc1ccc(S(=O)(=O)Nc2nccs2)cc1C#N
Pick one, A or B : lowest reported IC50. Response format: the label of the selected entry.
B

(A) N#Cc1cncc(-c2cc(C(F)(F)F)ccc2Oc2ccc(S(=O)(=O)Nc3ncns3)cc2C#N)c1
(B) Cn1nccc1-c1cc(Cl)ccc1Oc1ccc(S(=O)(=O)Nc2ccc(F)cn2)cc1Cl
(C) Cn1nc(C(F)(F)F)cc1-c1ccc(Oc2cc(F)c(S(=O)(=O)Nc3nccs3)cc2Cl)c(C#N)c1
Ordering criterion: IC50; begin with the maximum. Please reply with the labels ordered as requested. Many thanks.
A, B, C
(A: 1600 nM, B: 120 nM, C: 25 nM)

The origin of these recorded values is patent US8541588B2.
